Let's look at some molecules and their measured % inhibition at 10 μM.
system: kynurenine-3-monooxygenase (KMO); assay: KMO inhibition, radiometric assay per Erickson et al. (release of 3H2O from L-[3,5-3H]-kynurenine); assay type: biochemical; settings: compound at 10 μM
OUTCOME MEASURE: % inhibition at 10 μM (%)

• COc1ccc(S(=O)(=O)Nc2cc(-c3ccccc3)no2)cc1OC [Compound A13] = 17.82
• COc1ccc(S(=O)(=O)[N-]c2cccc(-c3ccccc3)c2)cc1OC.[K+] [Compound A22] = 19.57
• COc1ccc(S(=O)(=O)Nc2nc(-c3ccccc3)ns2)cc1OC [Compound A1] = 73.61
• Cc1ccc(S(=O)(=O)Nc2nnc(-c3ccccc3)s2)cc1 [Compound A6] = 71.59
• COc1ccc(S(=O)(=O)Nc2nnc(-c3ccccc3)s2)cc1OC [Compound A5] = 60.03
• COc1ccc(S(=O)(=O)Nc2nsc(-c3ccc(Cl)cc3)n2)cc1OC [Compound A19] = 68.6
• Cc1ccc(S(=O)(=O)Nc2nc(-c3ccccc3)ns2)cc1 [Compound A2] = 77.9
• COc1ccc(S(=O)(=O)Nc2ccc(-c3ccccc3)cn2)cc1OC [Compound A25] = 24.8
• COc1ccc(-c2cnc(NS(=O)(=O)c3ccc(OC)c(OC)c3)nc2)cc1 [Compound A23] = 17.5
• Cc1ccc(S(=O)(=O)Nc2cc(-c3ccccc3)no2)cc1 [Compound A14] = 30.74
